The measurements presented in this section are drawn from patent US10034477B2.

Catalogue of molecules with associated pest or weed control at 121.5 g/ha
System: Zymoseptoria tritici
Test: Fungicidal activity: leaf blotch of wheat (SEPTTR), disease control on wheat seedlings
Type: in vivo
Settings: 72 h, LV activity at 121.5 g/H, 3 Day Curative, wheat (variety Yuma), read-out: SEPTTR 3DC disease control rating

- COc1ccnc2c(=O)n([C@@H](C)C(=O)O[C@H](C(C)C)[C@H](C)Oc3ccc(C)cc3)c(=O)oc12 [Compound 30]: ≤ 80%
- COc1cc(Cl)ccc1C(c1ccc(Cl)cc1OC)[C@H](C)OC(=O)[C@H](C)n1c(=O)oc2c(OC)ccnc2c1=O [Compound 26]: > 80%
- COc1ccnc2c(=O)n([C@@H](C)C(=O)O[C@@H](C)C(c3ccc(C)cc3)c3ccc(C)cc3)c(=O)oc12 [Compound 32]: > 80%
- COc1ccnc2c(=O)n([C@@H](C)C(=O)O[C@@H](C)C(c3ccc(F)cc3)c3ccc(F)cc3)c(=O)oc12 [Compound 1]: > 80%
- COc1ccnc2c(=O)n([C@@H](C)C(=O)O[C@@H](C)[C@H](Oc3ccccc3)c3ccc(F)cc3Cl)c(=O)oc12 [Compound 15]: > 80%

Then this molecule:
Given the molecule CCCCC[C@H](OC(=O)[C@H](C)n1c(=O)oc2c(OC)ccnc2c1=O)[C@@H](C)Oc1ccccc1 [Compound 13] and test system Zymoseptoria tritici, the measured pest or weed control at 121.5 g/ha is ≤ 80%
